Read-out: Bcl-2 (BID) gene, BID (gene 637)
Assay: LTEA_HepaRG_BID: Life Technologies and Expression Analysis (LTEA) Assay for Bcl-2 (BID) gene using HepaRG (AID 2283476)
Conditions: mRNA level, 48 h; actives raise or lower the signal
Calls of active or inactive are those of the source. The calls were made as follows: active = hit-call score of the fitted dose curve at least 0.9, where 1 is the maximum; inactive = score below 0.9.
The reply should name one outcome from true (active), false (inactive)

Qu. Query: recorded result category for `CCC(C)(CC)c1cc(NC(=O)c2c(OC)cccc2OC)on1` in this test
Ans. false

Qu. Write down the call the test reported for this molecule. Item: `Cc1ccccc1[N+](=O)[O-]`
Ans. false

Qu. Test call, this molecule: `CN(C)c1nc(=O)n(C2CCCCC2)c(=O)n1C`
Ans. false

Qu. Write down the call the test reported for this molecule. Item: `c1cc2ccc3cccc4ccc(c1)c2c34`
Ans. false

Qu. Check the results log: what was the call for `COc1ccc(O)c(C(C)(C)C)c1` ?
Ans. false

Qu. // outcome(item) with item = `O=NN(c1ccccc1)c1ccccc1`
Ans. true

Qu. GET /call?item= `ClC1=C(Cl)[C@]2(Cl)[C@@H]3[C@@H]4C[C@@H]([C@H]5O[C@@H]45)[C@@H]3[C@@]1(Cl)C2(Cl)Cl` returns the recorded outcome of this test.
Ans. false

Qu. GET /call?item= `Oc1ccc(Cl)cc1Cl` returns the recorded outcome of this test.
Ans. true

Qu. Just curious, what result did `COS(=O)(=O)OC` get here?
Ans. false

Qu. Test call, this molecule: CCC(C)c1cc([N+](=O)[O-])cc([N+](=O)[O-])c1O (centres undefined)
Ans. true

Qu. Would you mind telling me which call this test gave Clc1ccc(C(c2ccccc2Cl)C(Cl)(Cl)Cl)cc1 (centres undefined) ?
Ans. false

Qu. Test call, this molecule: `O=C(O)C(F)(F)C(F)(F)C(F)(F)C(F)(F)C(F)(F)C(F)(F)C(F)(F)C(F)(F)F`
Ans. false

Qu. Test call, this molecule: `C=CC(=O)NCNC(=O)C=C`
Ans. false

Qu. Given `CC#Cc1cc(C)nc(Nc2ccccc2)n1` , state the outcome it received in this test.
Ans. false

Qu. Short answer needed: outcome of this test for `N#Cc1ccc(N(CC(N)=O)CC(F)(F)F)cc1C(F)(F)F` ?
Ans. false

Qu. What did this assay record as the result for `CCCCCCOC(=O)c1ccccc1C(=O)OCCCCCC` ?
Ans. false

Qu. Name the outcome recorded for `O=S(=O)(O)C(F)(F)C(F)(F)C(F)(F)C(F)(F)F` in the assay.
Ans. false

Qu. Hello, I am checking results. What call was entered for `CCOC(=O)C(O)(c1ccc(Cl)cc1)c1ccc(Cl)cc1` ?
Ans. false

Qu. Tell me the recorded outcome of this test for `Clc1ccc(Cl)cc1` .
Ans. false
